Below is a list of entries, each paired with its recorded Drug uptake value.
measurementNotes: Drug uptake in anesthetized cynomolgus monkey brain occipital lobe after 215 mins postinjection
Type: ADME, organism-based, Macaca fascicularis
measurementConditions: in vivo

| compound | Drug uptake |
| --- | --- |
| O=C(OCC[18F])C1C2CCC(CC1c1cccc(/C=C\I)c1)N2 (stereo not given) | 1.28 |
| O=C(OCCC[18F])C1C2CCC(CC1c1cccc(/C=C\I)c1)N2 (stereo not given) | 2.08 |
| O=C(OCC[18F])C1C2CCC(CC1c1ccc(/C=C\I)cc1)N2 (stereo not given) | 1.68 |
| O=C(OCC[18F])C1C2CCC(CC1c1cccc(/C=C\Br)c1)N2 (stereo not given) | 2.01 |
| O=C(OCCC[18F])C1C2CCC(CC1c1cccc(/C=C\Br)c1)N2 (stereo not given) | 2.7 |

* * *

We begin with a simple list: items and their reported Ratio.
measurementNotes: Ratio of drug uptake in occipital lobe to cerebellum in anesthetized cynomolgus monkey after 18.5 mins postinjection
Format: ADME, organism-based, Macaca fascicularis
measurementConditions: in vivo

| compound | Ratio |
| --- | --- |
| O=C(OCC[18F])C1C2CCC(CC1c1ccc(/C=C\I)cc1)N2 (stereo not given) | 0.7 |
| O=C(OCC[18F])C1C2CCC(CC1c1cccc(/C=C\Br)c1)N2 (stereo not given) | 0.8 |
| O=C(OCCC[18F])C1C2CCC(CC1c1cccc(/C=C\Br)c1)N2 (stereo not given) | 0.7 |
| O=C(OCC[18F])C1C2CCC(CC1c1cccc(/C=C\I)c1)N2 (stereo not given) | 0.7 |
| O=C(OCCC[18F])C1C2CCC(CC1c1cccc(/C=C\I)c1)N2 (stereo not given) | 0.8 |

* * *

Reported Drug uptake values follow for various compounds
Tested on: Putamen
measurementNotes: Drug uptake in anesthetized cynomolgus monkey brain putamen after 175 mins postinjection
Type: ADME, organism-based, Macaca fascicularis
measurementConditions: in vivo

| compound | Drug uptake |
| --- | --- |
| O=C(OCC[18F])C1C2CCC(CC1c1cccc(/C=C\Br)c1)N2 (stereo not given) | 3.76 |
| O=C(OCC[18F])C1C2CCC(CC1c1cccc(/C=C\I)c1)N2 (stereo not given) | 2.93 |
| O=C(OCCC[18F])C1C2CCC(CC1c1cccc(/C=C\I)c1)N2 (stereo not given) | 3.61 |
| O=C(OCCC[18F])C1C2CCC(CC1c1cccc(/C=C\Br)c1)N2 (stereo not given) | 4.1 |
| O=C(OCC[18F])C1C2CCC(CC1c1ccc(/C=C\I)cc1)N2 (stereo not given) | 3.1 |

* * *

System: Putamen
measurementNotes: Drug uptake in anesthetized cynomolgus monkey brain putamen after 155 mins postinjection
Assay type: ADME, organism-based, Macaca fascicularis
measurementConditions: in vivo
Listed next: entries and their corresponding Drug uptake.

| molecule | Drug uptake |
| --- | --- |
| O=C(OCCC[18F])C1C2CCC(CC1c1cccc(/C=C\Br)c1)N2 (centres undefined) | 4.38 |
| O=C(OCC[18F])C1C2CCC(CC1c1cccc(/C=C\Br)c1)N2 (centres undefined) | 4.01 |
| O=C(OCCC[18F])C1C2CCC(CC1c1cccc(/C=C\I)c1)N2 (centres undefined) | 3.8 |
| O=C(OCC[18F])C1C2CCC(CC1c1cccc(/C=C\I)c1)N2 (centres undefined) | 3.13 |
